# target.or.system: CypA (Homo sapiens, UniProt P62937)
# Construct: PPIA (UniProtKB Entry P62937: residues 1–165); made in house; host or cells: E. coli BL21(DE3)
# Sequence (P62937 whole entry, the tested form may be a part): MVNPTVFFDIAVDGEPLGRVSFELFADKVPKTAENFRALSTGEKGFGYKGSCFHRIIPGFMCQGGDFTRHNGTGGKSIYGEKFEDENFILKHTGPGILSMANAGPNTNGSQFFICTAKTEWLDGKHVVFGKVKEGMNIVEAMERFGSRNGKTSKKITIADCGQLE
# method.summary: Chymotrypsin coupled prolyl-isomerase assay
# Format: biochemical
# measurement.parameters: prolyl-isomerase inhibition, 5 nM cyclophilin; read-out: IC50 CypA
IC50 values by entry

NCCOCCNC(=O)C1CCNC(=O)C=CC(=O)N2CCCC(C2)C(=O)NC(Cc2ccco2)C(=O)NCc2ccccc2CC(=O)N1 (stereo not drawn)	~60 µM
NCCOCCNC(=O)[C@@H]1CCNC(=O)/C=C/C(=O)N2CCC[C@](Cc3ccccc3)(C2)C(=O)N[C@@H](Cc2ccc(-c3ccc(C(CC(=O)O)CC(=O)O)cc3)cc2)C(=O)NCc2ccccc2CC(=O)N1	3.4 µM

Here's the next entry for you.
So what does the record say about IC50 for `NC(=O)[C@@H]1CCNC(=O)/C=C/C(=O)N2CCC[C@](Cc3ccccc3)(C2)C(=O)N[C@@H](Cc2ccc(-c3cccc(B(O)O)c3)cc2)C(=O)NCc2ccccc2CC(=O)N1` ?
~6 µM

Ref: paper PMC9596378
